These data points were gathered from patent US8962648B2.

measured-on: PBK (Homo sapiens (Human))
Sequence (Q96KB5 whole entry): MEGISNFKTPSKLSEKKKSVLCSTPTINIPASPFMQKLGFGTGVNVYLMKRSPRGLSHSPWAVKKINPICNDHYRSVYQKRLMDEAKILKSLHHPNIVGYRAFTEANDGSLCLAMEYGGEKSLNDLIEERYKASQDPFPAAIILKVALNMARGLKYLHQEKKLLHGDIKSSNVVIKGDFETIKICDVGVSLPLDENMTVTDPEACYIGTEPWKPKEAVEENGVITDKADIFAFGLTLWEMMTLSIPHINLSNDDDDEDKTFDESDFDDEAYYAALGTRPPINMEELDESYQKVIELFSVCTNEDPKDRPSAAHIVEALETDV
experiment-description: Kinase assay (IMAP fluorescence polarization, FITC-labeled histone H3 peptide)
Type: biochemical
setup-conditions: PBK 0.8 ng/micro-L, 50 micro-M ATP, 100 nM FITC-labeled histone H3 peptide, room temperature 1 hour
Where a name gives a salt, the structure may show the parent alone.
Exercise: state measured pIC50 for each of the compounds provided.
In simple prose, pIC50 is minus the logarithm base ten of a concentration in moles per litre.

Which pIC50 reading was recorded for the compound COc1cc(Cl)c2[nH]c(=O)c3sccc3c2c1-c1ccc([C@@H](C)CN)cc1 [Compound 1201, hydrochloride] ?
7.70

Which pIC50 reading was recorded for the compound CC(CN)c1ccc(-c2c(O)cc(Cl)c3[nH]c(=O)c4sccc4c23)cc1 (stereo not shown) [Compound 1136, hydrochloride] ?
8.07

Which pIC50 reading was recorded for the compound NCCc1ccc(-c2c(O)cc(Br)c3[nH]c(=O)c4sccc4c23)cc1F [Compound 1213, hydrochloride] ?
7.72

Which pIC50 reading was recorded for the compound COc1cc(C)c2[nH]c(=O)c3sccc3c2c1-c1ccc(CCN)c(F)c1 [Compound 1216, hydrochloride] ?
7.24
